test: in vivo; conditions: female, Sprague-Dawley, rat, sc, 10 mg/kg
readout name: Cmax (ng/mL)
Give just the number in ng/mL; leave the unit off.

Form field Cmax, entry Cc1nc2n(c(=O)c1CCN1CCC(c3noc4cc(F)ccc34)CC1)CCCC2 : 4510
